B1: tRNA (parent)
chain: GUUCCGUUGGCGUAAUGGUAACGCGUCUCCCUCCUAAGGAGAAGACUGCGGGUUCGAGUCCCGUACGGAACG

Variants of: B1
RUN_DESCRIPTION: yeast fitness relative to wild type (ratio to wild type); higher = fitter; tRNA-Arg(CCU), competitive growth, 37 C, YPD
Variants at the floor of the assay were thinned out.
MEASURED_PARAMETER: yeast fitness
In your answer, state the number alone without any accompanying words.

Example results:
CHANGES	yeast fitness
U28C C60A	0.632
A36G C55U G68C	0.594
A43U U53C	0.854
U32C C60G	0.552
U13A G48A	1.03

Now take the following variant into account.
response.value for C31G C49G (field: yeast fitness) = 0.753

Recorded values, source the RNAGym collection of RNA variant scans (doi:10.1126/science.aae0568).
